Origin of values: patent US11453632B2

# ASSAYED_TARGET: ERα LBD (Homo sapiens, UniProt P03372)
# Construct: host or cells: HEK293
# Sequence (P03372 311-547 limits assumed): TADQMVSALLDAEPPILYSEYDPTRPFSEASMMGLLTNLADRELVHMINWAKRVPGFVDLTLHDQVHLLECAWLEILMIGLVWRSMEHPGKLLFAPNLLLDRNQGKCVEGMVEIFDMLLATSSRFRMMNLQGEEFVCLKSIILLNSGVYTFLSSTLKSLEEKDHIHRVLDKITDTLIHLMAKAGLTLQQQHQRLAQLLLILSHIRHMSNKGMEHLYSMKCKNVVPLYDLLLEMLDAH
# PROTOCOL_SUMMARY: Ability to bind to ERα: pBIND-ERα LBD / GAL4 luciferase reporter in HEK293 cells
# Format: cell-based
# Parameters: key: firefly luciferase / Renilla luciferase luminescence ratio
# ASSAY_CONDITIONS: 100 nM; negative control 0.00847035
Classification by relative light unit (RLU), ligand binding activity ERα | ranges: class A (below 0.02), class B (0.02 to below 0.4), class C (0.4 or more)

Class label required: Oc1ccc(CC(c2ccc(O)cc2)c2ccn[nH]2)cc1 (stereo not shown)
class A

Consider next the molecule Oc1ccc(CC(c2ccc(O)cc2)c2cnco2)cc1 (stereo not shown) in the same way.
class A

Consider next the molecule Oc1ccc(CC(C=C(F)F)c2ccc(O)cc2F)c(F)c1 (stereo not shown) in the same way.
class C

Consider next the molecule O=C(NC(Cc1ccc(O)cc1)c1ccc(O)cc1)C(F)(F)F (stereo not shown) in the same way.
class A

Consider next the molecule Oc1ccc(CC(C=C(Cl)Cl)c2ccc(O)cc2F)c(F)c1 (stereo not shown) in the same way.
class C

Consider next the molecule Oc1ccc(CC(c2ccc(O)cc2)c2cocn2)cc1 (stereo not shown) in the same way.
class B

Consider next the molecule Oc1ccc(CC(C=CF)c2ccc(O)cc2)cc1 (stereo not shown) in the same way.
class C

Consider next the molecule CC=CC(Cc1ccc(O)cc1)c1ccc(O)cc1 (stereo not shown) in the same way.
class B

Consider next the molecule CCC(C)C(Cc1ccc(O)cc1)c1ccc(O)cc1 (stereo not shown) in the same way.
class A

Consider next the molecule Oc1ccc(CC(c2ccc(O)cc2)C2CC2)cc1 (stereo not shown) in the same way.
class B

Consider next the molecule Oc1ccc(CC(C=C(F)F)c2ccc(O)cc2)cc1 (stereo not shown) in the same way.
class C

Consider next the molecule Oc1ccc(C(C=C(Cl)Cl)Cc2c(F)cc(O)cc2F)cc1 (stereo not shown) in the same way.
class C

====

# ASSAYED_TARGET: ERα LBD (Homo sapiens)
# Construct: host or cells: HEK293
# PROTOCOL_SUMMARY: Ability to bind to ERα: pBIND-ERα LBD / GAL4 luciferase reporter in HEK293 cells
# Assay type: cell-based
# Set-up: key: firefly luciferase / Renilla luciferase luminescence ratio
# ASSAY_CONDITIONS: 0.1 nM; negative control 0.00847035
For each entry below, report its relative light unit (RLU), ligand binding activity ERα value.
Output spec: single numeric token, no unit.

Need relative light unit (RLU), ligand binding activity ERα of Oc1ccc(CC(C=C(Cl)Cl)c2ccc(O)cc2F)c(F)c1 (stereo not drawn) [Compound 17-Cl] , thanks.
0.03125

Consider next the compound Oc1ccc(C(C=C(Cl)Cl)Cc2c(F)cc(O)cc2F)cc1 (stereo not drawn) [Compound 18-Cl] in the same way.
0.04255

Consider next the compound Oc1ccc(CC(c2ccc(O)cc2)c2cnco2)cc1 (stereo not drawn) [Compound 13] in the same way.
0.006796

Consider next the compound Oc1ccc(CC(C=C(F)F)c2ccc(O)cc2F)c(F)c1 (stereo not drawn) [Compound 17-F] in the same way.
0.06025

Consider next the compound Oc1ccc(CC(c2ccc(O)cc2)c2cocn2)cc1 (stereo not drawn) [Compound 16] in the same way.
0.01773

Consider next the compound Oc1ccc(CC(c2ccc(O)cc2)c2ccn[nH]2)cc1 (stereo not drawn) [Compound 12] in the same way.
0.02077

Consider next the compound Oc1ccc(CC(C=CF)c2ccc(O)cc2)cc1 (stereo not drawn) [Compound 8] in the same way.
0.005926

Consider next the compound Oc1ccc(CC(c2ccc(O)cc2)c2ncon2)cc1 (stereo not drawn) [Compound 14] in the same way.
0.01495

Consider next the compound Oc1ccc(CC(C=C(F)F)c2ccc(O)cc2)cc1 (stereo not drawn) [Compound 7] in the same way.
0.0373

====

# ASSAYED_TARGET: ERβ LBD (Homo sapiens, UniProt Q92731)
# Construct: host or cells: HEK293
# Sequence (Q92731 264-498 limits assumed): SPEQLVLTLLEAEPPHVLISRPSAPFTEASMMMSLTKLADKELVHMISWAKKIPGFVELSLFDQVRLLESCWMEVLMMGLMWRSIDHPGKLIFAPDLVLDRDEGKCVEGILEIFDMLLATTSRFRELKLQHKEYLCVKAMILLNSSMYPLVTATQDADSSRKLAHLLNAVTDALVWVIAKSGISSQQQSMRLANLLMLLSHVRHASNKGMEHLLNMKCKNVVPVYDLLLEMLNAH
# PROTOCOL_SUMMARY: Ability to bind to ERβ: pBIND-ERβ LBD / GAL4 luciferase reporter in HEK293 cells
# Format: cell-based
# Set-up: key: RLU = firefly luminescence / Renilla luminescence
# ASSAY_CONDITIONS: 1 nM; negative control 0.0118997
# Excerpt: This evaluation system is a system exploiting difference in the sequence of the ligand binding domain (LBD) between ERα and ERβ (J Endocrinol 163: 379-383 (1999)), and enables selective activation of ERβ to be evaluated by determining the binding of a ligand to LBD and the activation of ER. […]
READOUT_LABEL: relative light unit (RLU), ligand binding activity ERβ
Output spec: single numeric token, no unit.

Need relative light unit (RLU), ligand binding activity ERβ of Oc1ccc(CC(C=C(F)F)c2ccc(O)cc2F)c(F)c1 (stereo not drawn) , thanks.
2.021

Consider next the molecule O=C(NC(Cc1ccc(O)cc1)c1ccc(O)cc1)C(F)(F)F (stereo not drawn) in the same way.
0.01539

Consider next the molecule CC=CC(Cc1ccc(O)cc1)c1ccc(O)cc1 (stereo not drawn) in the same way.
0.9744

Consider next the molecule Oc1ccc(CC(C=C(F)F)c2ccc(O)cc2)cc1 (stereo not drawn) in the same way.
1.877

Consider next the molecule Oc1ccc(CC(C=C(Cl)Cl)c2ccc(O)cc2F)c(F)c1 (stereo not drawn) in the same way.
1.22

Consider next the molecule Oc1ccc(CC(C=CF)c2ccc(O)cc2)cc1 (stereo not drawn) in the same way.
0.9979

Consider next the molecule Oc1ccc(CC(c2ccc(O)cc2)c2ncon2)cc1 (stereo not drawn) in the same way.
0.02069

Consider next the molecule CCC(C)C(Cc1ccc(O)cc1)c1ccc(O)cc1 (stereo not drawn) in the same way.
0.01046

Consider next the molecule Oc1ccc(CC(c2ccc(O)cc2)c2ccn[nH]2)cc1 (stereo not drawn) in the same way.
0.03073

====

# ASSAYED_TARGET: ERβ LBD (Homo sapiens)
# Construct: host or cells: HEK293
# PROTOCOL_SUMMARY: Ability to bind to ERβ: pBIND-ERβ LBD / GAL4 luciferase reporter in HEK293 cells
# Format: cell-based
# Parameters: key: RLU = firefly luminescence / Renilla luminescence
# ASSAY_CONDITIONS: 100 nM; negative control 0.0118997
# Source text: This evaluation system is a system exploiting difference in the sequence of the ligand binding domain (LBD) between ERα and ERβ (J Endocrinol 163: 379-383 (1999)), and enables selective activation of ERβ to be evaluated by determining the binding of a ligand to LBD and the activation of ER. […]
READOUT_LABEL: relative light unit (RLU), ligand binding activity ERβ
Output spec: single numeric token, no unit.

For ERβ LBD (Homo sapiens), provide relative light unit (RLU), ligand binding activity ERβ of Oc1ccc(CC(C=C(F)F)c2ccc(O)cc2F)c(F)c1 (centres unmarked) please.
2.186

Consider next the molecule Oc1ccc(CC(c2ccc(O)cc2)c2ncon2)cc1 (centres unmarked) in the same way.
0.9946

Consider next the molecule O=C(NC(Cc1ccc(O)cc1)c1ccc(O)cc1)C(F)(F)F (centres unmarked) in the same way.
0.2211

Consider next the molecule Oc1ccc(CC(C=CF)c2ccc(O)cc2)cc1 (centres unmarked) in the same way.
1.031

Consider next the molecule Oc1ccc(CC(c2ccc(O)cc2)c2cocn2)cc1 (centres unmarked) in the same way.
0.8625

Consider next the molecule Oc1ccc(C(C=C(Cl)Cl)Cc2c(F)cc(O)cc2F)cc1 (centres unmarked) in the same way.
2.261

Consider next the molecule CC=CC(Cc1ccc(O)cc1)c1ccc(O)cc1 (centres unmarked) in the same way.
1.216

Consider next the molecule Oc1ccc(CC(C=C(F)F)c2ccc(O)cc2)cc1 (centres unmarked) in the same way.
2.408

====

# ASSAYED_TARGET: ERβ LBD (Homo sapiens)
# Construct: host or cells: HEK293
# PROTOCOL_SUMMARY: Ability to bind to ERβ: pBIND-ERβ LBD / GAL4 luciferase reporter in HEK293 cells
# Assay type: cell-based
# Set-up: key: RLU = firefly luminescence / Renilla luminescence
# ASSAY_CONDITIONS: 1 nM; negative control 0.0118997
# Description: This evaluation system is a system exploiting difference in the sequence of the ligand binding domain (LBD) between ERα and ERβ (J Endocrinol 163: 379-383 (1999)), and enables selective activation of ERβ to be evaluated by determining the binding of a ligand to LBD and the activation of ER. […]
READOUT_LABEL: relative light unit (RLU), ligand binding activity ERβ
Output spec: single numeric token, no unit.

Need relative light unit (RLU), ligand binding activity ERβ of Oc1ccc(CC(c2ccc(O)cc2)c2cocn2)cc1 (stereo not shown) , thanks.
0.01759

Consider next the compound Oc1ccc(CC(c2ccc(O)cc2)c2cnco2)cc1 (stereo not shown) in the same way.
0.02471

Consider next the compound Oc1ccc(CC(c2ccc(O)cc2)C2CC2)cc1 (stereo not shown) in the same way.
0.04726

Consider next the compound Oc1ccc(C(C=C(Cl)Cl)Cc2c(F)cc(O)cc2F)cc1 (stereo not shown) in the same way.
1.819
